assay.summary: protein stability index of a GFP-peptide fusion (GPS, HEK-293T) (PSI 1-6); higher = more stable;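 also: 24-mer peptide tiles fused after GFP, lentivirally expressed, FACS-sorted into six equal bins by GFP/DsRed ratio, decoded by Illumina sequencing, PSI is the read-weighted mean bin number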
stated.conditions: treatment: MLN4924 1 uM, 8 h; c terminus: a fixed tail appended
quantity: protein stability index
The response must contain the number and no unit.

stdin: Reported protein stability index, sequence HGSGGSGYPAAPPAVPFAPHFLQG [TBX6] : ____
stdout: 3.06

stdin: Reported protein stability index, sequence LETFGHLLSIGPELPKPEVISQLE [ZNF8] : ____
stdout: 3.93

stdin: Reported protein stability index, sequence RTPLMYCVLADRLDCADALLKAGA [INVS] : ____
stdout: 2.08
